# TARGET_DESC: CYP2C9 (Homo sapiens)
# Sequence (P11712 whole entry): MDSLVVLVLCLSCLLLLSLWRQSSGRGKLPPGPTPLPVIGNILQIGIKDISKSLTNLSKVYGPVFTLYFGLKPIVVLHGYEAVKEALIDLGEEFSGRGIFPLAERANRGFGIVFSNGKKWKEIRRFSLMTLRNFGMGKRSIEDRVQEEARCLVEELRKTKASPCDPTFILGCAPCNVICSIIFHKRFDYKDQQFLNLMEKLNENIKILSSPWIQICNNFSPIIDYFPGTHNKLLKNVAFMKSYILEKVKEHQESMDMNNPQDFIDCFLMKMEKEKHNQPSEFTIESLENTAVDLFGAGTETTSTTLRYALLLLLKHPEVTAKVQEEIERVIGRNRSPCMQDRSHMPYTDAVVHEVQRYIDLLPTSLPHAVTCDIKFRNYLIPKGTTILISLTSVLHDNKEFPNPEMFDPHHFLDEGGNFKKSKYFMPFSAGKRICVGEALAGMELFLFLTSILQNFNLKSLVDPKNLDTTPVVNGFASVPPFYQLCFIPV
# PROCEDURE_TEXT: Inhibition of recombinant CYP2C9-overexpressing microsomes (diclofenac and warfarin probes)
# Format: in vitro ADME
# Parameters: made in house; host or cells: HEK293 cells (microsomal fraction)
# MEASUREMENT_PARAMETERS: IC50,u, warfarin -> 7′-hydroxywarfarin; rec CYP2C9 microsomes; unbound, adjusted with fu,inc; mean ± SD
MEASURED_PARAMETER: IC50 (nM)

[[record]]
molecule = "CCCCCc1cc(O)c2c(c1)OC(C)(C)C1CC=C(CO)CC21 (centres unmarked) [11-OH-Δ8-THC, 11-hydroxy-Δ8-THC]"
measured_parameter = "IC50"
readout_value = 1050

[[record]]
molecule = "CCCCCc1cc(O)c2c(c1)OC(C)(C)C1CC=C(C)CC21 (centres unmarked) [Δ8-THC, Δ8-Tetrahydrocannabinol]"
measured_parameter = "IC50"
readout_value = 200

